biological target: CDT1 (Homo sapiens, UniProt Q9H211); construct: tCDT1 (residues 158–356); also miniCDT1 (residues 158–396); with Geminin; assay: SPR inhibition of Geminin binding to immobilized CDT1; AlphaScreen IC50 […]; FRET in MCF7 cells
Sequence (Q9H211 158-356): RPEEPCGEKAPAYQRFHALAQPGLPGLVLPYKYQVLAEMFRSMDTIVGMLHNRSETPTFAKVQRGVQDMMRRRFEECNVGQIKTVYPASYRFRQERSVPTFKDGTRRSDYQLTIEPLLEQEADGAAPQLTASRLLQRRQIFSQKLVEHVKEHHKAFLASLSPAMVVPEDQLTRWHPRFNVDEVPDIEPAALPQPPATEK
Sequence (O75496 whole entry partner, the tested form may be a part): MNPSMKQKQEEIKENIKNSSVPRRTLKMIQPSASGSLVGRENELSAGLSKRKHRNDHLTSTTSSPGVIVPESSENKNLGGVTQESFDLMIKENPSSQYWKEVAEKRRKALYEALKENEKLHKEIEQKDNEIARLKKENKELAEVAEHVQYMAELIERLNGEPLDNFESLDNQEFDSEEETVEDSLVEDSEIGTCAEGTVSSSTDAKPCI
Metric name: Ki
Just so you know, I need the unit written after the number.

If you can, please state the reported Ki value of O=C(NNC(=S)N1CCOCC1)c1cnccn1 .
370 nM

Sourced from paper PMC9083542
